- Target System: Cytochrome P450 2D6 (Homo sapiens)
- Test Method Notes: Cytochrome panel assay with activity outcomes; as to activity, negative = inhibition: % is scaled to controls: 0 for no effect and ±100 for the full control effect
- Condition Set: recombinant CYP, pro-luciferin dealkylation, luminescence, p450-cyp2d6; series mostly up to 57.1 µM
The campaign covered roughly 16,000 compounds. About 2,600 (16%) were called active. Inconclusive results (about 20%) are left out. This excerpt belongs to a sample that is enriched for actives.
I'd appreciate it if you could supply activity, negative = inhibition values for the items below.

INSERT INTO assay_data (molecule, target_system, obs_value) VALUES
  ('O=C(O)C[O][Sb][O]CC(=O)O', 'Cytochrome P450 2D6 (Homo sapiens)', '2.9% [at 11.4 µM] (inactive)'),
  ('O=C(O)[C@H]1[O][Sb][O][C@@H](C(=O)O)C1O (stereo partly specified)', 'Cytochrome P450 2D6 (Homo sapiens)', '-8.1% [at 11.4 µM] (inactive)'),
  ('CC(=O)[C@]1(O)CC[C@@H]2[C@H]3C[C@@H](C)C4=CC(=O)CC[C@@]4(C)[C@H]3[C@@H](O)C[C@]21C', 'Cytochrome P450 2D6 (Homo sapiens)', '1.26% [at 11.4 µM] (inactive)'),
  ('Nc1nnnn1CCO', 'Cytochrome P450 2D6 (Homo sapiens)', '3.8% [at 11.4 µM] (inactive)'),
  ('N[C@@H](Cc1ccccc1)P(=O)(O)O', 'Cytochrome P450 2D6 (Homo sapiens)', '-3.26% [at 11.4 µM] (inactive)'),
  ('O=C(O)[C@@H](O)[C@@H](O)[C@@H]1[O][Sb][O][C@@H]1CO', 'Cytochrome P450 2D6 (Homo sapiens)', '12.5% [at 11.4 µM] (inactive)');

Could you report activity, negative = inhibition for every entry in the following list?
1. O=C(Oc1ccc(S(=O)(=O)F)cc1F)c1ccccc1Cl
2. Nc1ccc(S(=O)(=O)c2ccc(NCN3C(=O)NC(=O)C(=O)C3=O)cc2)cc1
3. CS(=O)(=O)O[C@H]1CN2CCC1CC2
4. CC(C)c1ccc(C(c2c(O)c3ccccc3oc2=O)c2c(O)c3ccccc3oc2=O)cc1

1. 12.8% [at 11.4 µM] (inactive)
2. 4.3% [at 11.4 µM] (inactive)
3. 2.87% [at 11.4 µM] (inactive)
4. 2.43% [at 11.4 µM] (inactive)

====

- Target System: Cytochrome P450 2D6 (Homo sapiens) (UniProt P10635)
- Sequence (P10635 whole entry, looked up): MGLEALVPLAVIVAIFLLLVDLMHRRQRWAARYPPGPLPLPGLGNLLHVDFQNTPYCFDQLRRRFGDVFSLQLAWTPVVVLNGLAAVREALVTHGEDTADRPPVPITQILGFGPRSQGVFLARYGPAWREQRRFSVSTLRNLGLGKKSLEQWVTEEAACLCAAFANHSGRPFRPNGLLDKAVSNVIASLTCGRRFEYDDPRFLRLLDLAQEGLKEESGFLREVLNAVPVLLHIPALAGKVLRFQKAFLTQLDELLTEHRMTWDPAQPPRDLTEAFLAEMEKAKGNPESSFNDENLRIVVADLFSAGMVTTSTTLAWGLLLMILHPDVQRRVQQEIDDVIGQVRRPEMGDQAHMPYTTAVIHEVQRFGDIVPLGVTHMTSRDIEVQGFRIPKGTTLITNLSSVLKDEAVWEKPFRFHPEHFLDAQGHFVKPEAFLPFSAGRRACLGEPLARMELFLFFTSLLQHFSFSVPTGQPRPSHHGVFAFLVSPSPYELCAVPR
- Test Method Notes: Cytochrome panel assay with activity outcomes
- Condition Set: recombinant CYP, pro-luciferin dealkylation, luminescence, p450-cyp2d6; series mostly up to 57.1 µM
The campaign covered roughly 16,000 compounds. About 2,600 (16%) were called active. Inconclusive results (about 20%) are left out. Calls come from the whole dose curve; as a rule, active = well fitted curve in the direction sought with a large enough effect; inconclusive = small, poorly fitted or top-dose-only effect, or effect the other way; inactive = no such curve, though single readings can be large or run the other way. Many of the other results were omitted from the sample, so actives are more common in it than they were.
Respond using exactly one of the listed classes: active, inactive

These recorded examples may help you get a feel for the data.
INSERT INTO results (compound, group_label) VALUES
  ('CO[C@@H]1CC=C2CCN3CCC4=C(CC(=O)OC4)[C@]23C1', 'inactive'),
  ('CC[N+](C)(C)c1cccc(O)c1', 'inactive'),
  ('COC(=O)C1=CCCN(C)C1', 'inactive');

Recorded call for "COc1cc(OC)c(/C=C2/C(=O)Nc3ccccc32)c(OC)c1" ?
inactive

How did this test come out for CC(C)C12CN3CC(C(C)C)(CN(C1)C3c1cccnc1)C2=O (stereo not given) ?
inactive

====

- Target System: Cytochrome P450 2D6 (Homo sapiens)
- Test Method Notes: Cytochrome panel assay with activity outcomes
- Condition Set: recombinant CYP, pro-luciferin dealkylation, luminescence, p450-cyp2d6; series mostly up to 57.1 µM
- Method: The P450 gene superfamily is involved in the metabolism and clearance of xenobiotics. This assay used various human CYP P450 isozymes to measure the dealkylation of various pro-luciferin substrates to luciferin. The luciferin is then measured by luminescence after the addition of a luciferase detection reagent. […] Inhibitors and some substrates limit the production of luciferin, and decrease measured luminescence. […] 8, Detection, 1 sec, ViewLux luminescent read […]
About 2,600 (16%) of roughly 16,000 compounds were called active. About 20% were inconclusive and are not listed. Calls follow the shape of the dose curve; as a rule, active = well fitted curve in the direction sought with a large enough effect; inconclusive = small, poorly fitted or top-dose-only effect, or effect the other way; inactive = no such curve, though single readings can be large or run the other way. For the sample, actives were picked, then their nearest neighbours and some compounds at random.
Reply using exactly one outcome from active, inactive

Consider the worked cases shown below.
INSERT INTO results (compound, group_label) VALUES
  ('Cc1ccc(N2C(=O)/C(=C/N3CCN(C(=O)c4ccco4)CC3)C(=O)NC2=S)cc1C', 'active'),
  ('Cn1cnc(CCN)c1', 'inactive'),
  ('CC[N@+]1(C)CCC[C@@H](OC(=O)C(O)(c2ccccc2)c2ccccc2)C1', 'active'),
  ('CC12CN3CC(C)(CN(C1)C31CCSCC1)C2=O', 'inactive'),
  ('COC(=O)N1CCC2(CCN(CC(C)C)CC2)CC1', 'active');

Tell me the recorded outcome of this test for "CCCCC/C=C\C/C=C\C/C=C\C/C=C\CCCC(=O)NCC(=O)O" .
inactive

Name the outcome recorded for "CC(=O)[C@@H]1CC[C@@H]2[C@@H]3CCC4=CC(=O)CC[C@@]4(C)[C@H]3CC[C@]21C" in the assay.
inactive

What was the test verdict on "CCCN(C/C=C\I)[C@@H]1CCc2ccc(O)cc2C1" ?
active

Lab log entry: CC[C@H](Oc1ccc(Cl)cc1)C(=O)OC1C[C@H]2CC[C@@H](C1)N2C (some centres not stated) — outcome as called in the assay?
active

Which outcome was entered for the compound "NCCc1ccc(S(=O)(=O)F)cc1" in this test?
active

====

- Target System: Cytochrome P450 2D6 (Homo sapiens) (UniProt P10635)
- Test Method Notes: Cytochrome panel assay with activity outcomes; as to activity, negative = inhibition: % is scaled to controls: 0 for no effect and ±100 for the full control effect
- Condition Set: recombinant CYP, pro-luciferin dealkylation, luminescence, p450-cyp2d6; series mostly up to 57.1 µM
- Protocol: The P450 gene superfamily is involved in the metabolism and clearance of xenobiotics. This assay used various human CYP P450 isozymes to measure the dealkylation of various pro-luciferin substrates to luciferin. The luciferin is then measured by luminescence after the addition of a luciferase detection reagent. […] Inhibitors and some substrates limit the production of luciferin, and decrease measured luminescence. […] 8, Detection, 1 sec, ViewLux luminescent read […]
Screen size: about 16,000 compounds; about 2,600 (16%) were called active. Inconclusive results (about 20%) are left out. The entries come from a sample that favours actives as a whole.
Task for the reader: assign each of the following molecules its reported activity, negative = inhibition.

Please review the entries below; each comes with its answer.
INSERT INTO assay_data (smiles_code, target_system, readout_type, obs_value) VALUES
  ('Cc1c([C@@H](C)[C@H]2NC[C@H](C)C[C@@H]2O)ccc2c1C[C@@H]1[C@H]2CC=C2C[C@@H](O)CC[C@@]21C', 'Cytochrome P450 2D6 (Homo sapiens) (UniProt P10635)', 'activity, negative = inhibition', '9.78% [at 11.4 µM] (inactive)'),
  ('O=C1c2cc([N+](=O)[O-])ccc2-c2ccc3c4ccc5c6c(ccc(c7ccc1c2c73)c64)C(=O)c1cc([N+](=O)[O-])ccc1-5', 'Cytochrome P450 2D6 (Homo sapiens) (UniProt P10635)', 'activity, negative = inhibition', '-6.4% [at 11.4 µM] (inactive)'),
  ('N[C@H](Cc1c[nH]c2ccccc12)P(=O)(O)O', 'Cytochrome P450 2D6 (Homo sapiens) (UniProt P10635)', 'activity, negative = inhibition', '-0.254% [at 11.4 µM] (inactive)');

# input for lookup
Looking up "CC1=C2C(=O)[C@@H]3[C@@H](CC=C4C[C@@H](O)CC[C@@]43C)[C@H]2CC[C@@]12O[C@H]1C[C@H](C)CN[C@H]1[C@@H]2C" , I see its activity, negative = inhibition listed as 9.41% [at 11.4 µM] (inactive)

====

- Target System: Cytochrome P450 2D6 (Homo sapiens) (UniProt P10635)
- Test Method Notes: Cytochrome panel assay with activity outcomes
- Condition Set: recombinant CYP, pro-luciferin dealkylation, luminescence, p450-cyp2d6; series mostly up to 57.1 µM
About 2,600 (16%) of roughly 16,000 compounds were called active. About 20% were inconclusive and are not listed. This is one part of a sample in which actives are shown more often than they occur.
Readout Type: AC50

Illustrative cases are given below, each with its answer.
INSERT INTO measurements (compound, obs_value) VALUES
  ('CC(=Nc1c(C)n(C)n(-c2ccccc2)c1=O)c1c(O)n(Cc2ccccc2)c(=O)[nH]c1=O', 'inactive'),
  ('CN1CCN(c2ccc([N+](=O)[O-])c(N/N=C3\CN4CCC3CC4)c2)CC1', 'inactive'),
  ('CC(C)C[C@H]1C(=O)N2CCC[C@@H]2[C@]2(O)O[C@](NC(=O)[C@@H]3C=C4c5cccc6[nH]c(Br)c(c56)C[C@H]4N(C)C3)(C(C)C)C(=O)N12', 'inactive'),
  ('CC[C@@H](CO)NC(=O)[C@H]1C=C2c3cccc4c3c(cn4C)C[C@H]2N(C)C1', '12600 nM (active)');

Below is a list of compounds. For each, state its recorded AC50.
1. O=C(O)[C@H]1[C@H](C(=O)O)[C@H]2CC[C@@H]1O2
2. C[C@@]12CC[C@H]3[C@@H](CCC4=C(O)C(=O)CC[C@]43C)[C@H]1CCC2=O
3. C[C@@]12CC[C@H](O)C[C@@H]1CC[C@H]1[C@H]2CC[C@@]2(C)[C@@H](C3=CC(=O)OC3)CC[C@]12O
4. Cc1ccc(C2CC(=O)C(C=NCCN3CCN(C(=O)Cc4ccccc4)CC3)=C(O)C2)cc1 (stereo not given)
5. NC(=O)CN1C[C@@H](O)CC1=O
6. CC(=O)Nc1ccccc1C(=O)OCc1ccc(C(=O)c2ccccc2)cc1

1: inactive; 2: inactive; 3: inactive; 4: inactive; 5: inactive; 6: inactive

Hey, quick one: what's AC50 for each of these?
1. CCOc1ccc2c(c1)C(C)=CC(C)(C)N2
2. Cc1cc(C)cc(NC(=S)NC2CC3CCC(C2)N3Cc2ccco2)c1 (stereo not given)
3. C[C@]12CC[C@@H]3C(=CCc4cc(O)ccc43)[C@@H]1CCC2=O
4. Clc1ccc(C2=CCC[C@H]3CC[C@@H]2N3)cn1
5. C[N+]1(C)CCO[C@@](O)(c2ccc(-c3ccc([C@]4(O)C[N+](C)(C)CCO4)cc3)cc2)C1
6. CNC(=O)Oc1ccc2c(c1)[C@@]1(C)CCN(C)[C@@H]1N2C

["2510 nM (active)", "17800 nM (active)", "inactive", "inactive", "inactive", "251 nM (active)"]

Kindly give each listed record's AC50.
1. O=c1c(O)c(-c2ccc(O)c(O)c2)oc2cc(O)cc(O)c12
2. CCNC(=S)NC1CC2CCCC(C1)N2Cc1ccco1 (stereo not given)
3. CCCN(CCC)[C@@H]1CCc2c(OC)cccc2[C@@H]1C

["inactive", "2000 nM (active)", "inactive"]

The value of AC50 measured for the compound "O=C(O)CN1CCN(CC(=O)O)CC(=O)[O][Hg][O]C(=O)C1" turned out to be 3160 nM (active)

All values here come from PubChem BioAssay AID1851.
